Target: T1, Bfl-1, Q16548
T1 chain: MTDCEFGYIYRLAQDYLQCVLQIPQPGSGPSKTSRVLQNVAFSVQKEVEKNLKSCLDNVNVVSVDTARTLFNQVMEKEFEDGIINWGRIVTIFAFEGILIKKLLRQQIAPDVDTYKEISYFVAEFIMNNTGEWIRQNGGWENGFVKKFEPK
Test: peptide SPOT array, c-Myc-tagged receptor at 1 uM or 100 nM, anti-c-Myc-Cy3
reported.endpoint: SPOT signal as a fraction of Bim BH3's signal on the same receptor and array

Query SPOT signal as a fraction of Bim BH3's signal on the same receptor and array for THFLDEEVKLIKKMLDHLTNLHRLGG [FTL]
0.04

Query SPOT signal as a fraction of Bim BH3's signal on the same receptor and array for PVESSWIAPEDRLQSDDILPLGKDSG [DHX30]
0.04

Query SPOT signal as a fraction of Bim BH3's signal on the same receptor and array for RTNNYQLSDELRKNGVELTSLRQKVA [GRIPAP1]
0.48

Query SPOT signal as a fraction of Bim BH3's signal on the same receptor and array for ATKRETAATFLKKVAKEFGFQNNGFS [NPLOC4]
0.41

Query SPOT signal as a fraction of Bim BH3's signal on the same receptor and array for FVGCEFLHHLLREWGEELQAVLRSSQ [GEMIN4]
0.02

a: TETKATFGVHLKIVGDWTERFRDLLL [NOX4]
b: VLLTLLVAAVLRCQLQDVQEAGSCVQ [COL2A1]
# returns the entry with the larger SPOT signal as a fraction of Bim BH3's signal on the same receptor and array; inputs a and b Answer format: the label of the selected item.
a

A: ADAIRPRCVELRHLLDDFINGNKKKW [MCF2L2]
B: FTCKNKFCKPLFWVLDSVNDCGDNSD [ST14]
C: DATHDEAVQALKRAGKEVLLEVKYMR [SNTB1]
D: ELLYGIWSNCDGLISDSFHMFFDSTA [SLC30A7]
Sort by SPOT signal as a fraction of Bim BH3's signal on the same receptor and array, descending. Give the labels in the order specified.
A, B, D, C

P: SSTMGQVGRQLAIIGDDINRRYDSEF [BAK1]
Q: CHGLRELALNYHLLLDELLLALSSEK [FBXL3]
R: FSKREKLVEIDRNIGDERTMVFVETK [DDX4]
Ascending by SPOT signal as a fraction of Bim BH3's signal on the same receptor and array, please. Give the labels in the order specified.
Q, R, P
(Q: 0.04, R: 0.06, P: 0.4)
